Below, each entry is listed alongside its reported EC50.
molecular target: PB2 (Influenza A virus, UniProt P03428); experiment: biochemical
Sequence (P03428 whole entry, looked up): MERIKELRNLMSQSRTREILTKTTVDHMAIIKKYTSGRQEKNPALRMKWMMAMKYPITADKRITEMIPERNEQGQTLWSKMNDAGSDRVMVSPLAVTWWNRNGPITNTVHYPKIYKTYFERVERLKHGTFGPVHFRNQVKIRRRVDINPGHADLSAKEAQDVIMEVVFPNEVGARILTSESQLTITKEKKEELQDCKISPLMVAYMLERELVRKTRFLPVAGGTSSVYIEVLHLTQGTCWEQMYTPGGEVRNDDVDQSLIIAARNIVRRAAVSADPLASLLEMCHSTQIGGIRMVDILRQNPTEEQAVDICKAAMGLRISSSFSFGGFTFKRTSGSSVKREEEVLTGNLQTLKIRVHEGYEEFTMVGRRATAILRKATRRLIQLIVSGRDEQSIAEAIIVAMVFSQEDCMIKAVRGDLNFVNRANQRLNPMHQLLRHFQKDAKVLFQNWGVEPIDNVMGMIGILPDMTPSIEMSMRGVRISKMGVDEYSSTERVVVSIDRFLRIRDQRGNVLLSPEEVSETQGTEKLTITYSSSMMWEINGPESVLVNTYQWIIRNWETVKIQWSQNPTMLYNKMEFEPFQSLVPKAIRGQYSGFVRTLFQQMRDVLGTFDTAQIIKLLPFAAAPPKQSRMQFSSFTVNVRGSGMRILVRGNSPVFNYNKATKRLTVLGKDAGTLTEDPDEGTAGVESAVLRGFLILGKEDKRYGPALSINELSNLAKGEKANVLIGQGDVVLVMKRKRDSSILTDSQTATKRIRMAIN

Examples with answers:
Compound	EC50
CCOCCOCCOCCN(Cc1ccccc1)C(=O)N[C@@H]1CCC[C@H](Nc2nc(-c3c[nH]c4ncc(F)cc34)ncc2F)C1	> 100 µM
CCNC(=O)C(NC(=O)OCc1ccnc(C(=O)N[C@H]2CCC[C@@H](Nc3nc(-c4c[nH]c5ncc(F)cc45)ncc3F)C2)c1)C(C)(C)C (stereo partly shown) [Compound A148]	50 to 100 µM
CCOc1cccc(-c2ccnc(C(=O)N[C@H]3CCC[C@@H](Nc4nc(-c5c[nH]c6ncc(F)cc56)ncc4F)C3)c2)c1	> 100 µM
CCCCOCCCCCCN(C)C(=O)N[C@@H]1CCC[C@H](Nc2nc(-c3c[nH]c4ncc(F)cc34)ncc2F)C1	> 100 µM

Look up EC50 of "O=C(NCCc1ccccc1)OCc1ccnc(C(=O)N[C@@H]2CCC[C@H](Nc3nc(-c4c[nH]c5ncc(F)cc45)ncc3F)C2)c1" and report it. > 100 µM

Look up EC50 of "O=C(O)CCCN1CCC[C@H](Nc2nc(-c3c[nH]c4ncc(F)cc34)ncc2F)C1" and report it. 5 to 25 µM

Look up EC50 of "O=C(O)COCCNC(=O)OCc1ccnc(C(=O)N[C@@H]2CCC[C@H](Nc3nc(-c4c[nH]c5ncc(F)cc45)ncc3F)C2)c1" and report it. < 5 µM

Look up EC50 of "O=C(NCCc1ccc(Oc2ccccc2)cc1)OCc1ccnc(C(=O)N[C@H]2CCC[C@@H](Nc3nc(-c4c[nH]c5ncc(F)cc45)ncc3F)C2)c1" and report it. > 100 µM

Look up EC50 of "CCOCCCc1cncc(CCN(C)C(=O)N[C@H]2CCC[C@@H](Nc3nc(-c4c[nH]c5ncc(F)cc45)ncc3F)C2)c1" and report it. > 100 µM

Look up EC50 of "O=C(N[C@H]1CCC[C@@H](Nc2nc(-c3c[nH]c4ncc(F)cc34)ncc2F)C1)c1cnc2ccccc2c1" and report it. 5 to 25 µM

Look up EC50 of "O=C(NCCc1ccc(F)cc1)OCc1ccnc(C(=O)N[C@H]2CCC[C@@H](Nc3nc(-c4c[nH]c5ncc(F)cc45)ncc3F)C2)c1" and report it. > 100 µM

Look up EC50 of "NCCOCCOCCOCC(=O)N1CCC[C@H](Nc2nc(-c3c[nH]c4ncc(F)cc34)ncc2F)C1" and report it. 5 to 25 µM

====

target: PB2 (Influenza A virus); assay: biochemical
Property measured: EC50

Compound	Result value
COc1ccc(CNC(=O)OCc2ccnc(C(=O)N[C@H]3CCC[C@@H](Nc4nc(-c5c[nH]c6ncc(F)cc56)ncc4F)C3)c2)cc1OC [Compound A126]	> 100 µM

Look up EC50 of O=C(N[C@H]1CCC[C@@H](Nc2nc(-c3c[nH]c4ncc(F)cc34)ncc2F)C1)N1CCCC(CCCOCCOCc2ccccc2)C1 (stereo partly shown) [Compound A9] and report it. > 100 µM

Look up EC50 of CCOCCOCCCCCN(C(=O)N[C@@H]1CCC[C@H](Nc2nc(-c3c[nH]c4ncc(Cl)cc34)ncc2Cl)C1)C(C)C [Compound A249] and report it. > 100 µM

Look up EC50 of O=C(O)CCc1ccnc(C(=O)N[C@H]2CCC[C@@H](Nc3nc(-c4c[nH]c5ncc(F)cc45)ncc3F)C2)c1 [Compound A49] and report it. < 5 µM

Look up EC50 of O=C(N[C@H]1CCC[C@@H](Nc2nc(-c3c[nH]c4ncc(F)cc34)ncc2F)C1)c1cc(CC(O)CO)ccn1 (stereo partly shown) [Compound A50] and report it. < 5 µM

====

biological target: PB2 (Influenza A virus, UniProt P03428); experiment: biochemical
Below, each entry is listed alongside its reported EC50.

Examples with answers:
Compound	EC50
O=C(N[C@H]1CCC[C@@H](Nc2nc(-c3c[nH]c4ncc(F)cc34)ncc2F)C1)N1CCCc2ccccc21	> 100 µM
CCOc1cccc(-c2cncc(C(=O)N[C@@H]3CCC[C@H](Nc4nc(-c5c[nH]c6ncc(F)cc56)ncc4F)C3)c2)c1	25 to 50 µM
CCOCCOc1cccc(CCN(C)C(=O)N[C@@H]2CCC[C@H](Nc3nc(-c4c[nH]c5ncc(F)cc45)ncc3F)C2)c1	> 100 µM
O=C(NCC1CCCO1)OCc1ccnc(C(=O)N[C@H]2CCC[C@@H](Nc3nc(-c4c[nH]c5ncc(F)cc45)ncc3F)C2)c1 (some centres unmarked)	5 to 25 µM

Look up EC50 of "CCOCCOCc1cc(-c2ccnc(C(=O)N[C@H]3CCC[C@@H](Nc4nc(-c5c[nH]c6ncc(F)cc56)ncc4F)C3)c2)ccc1F" and report it. > 100 µM

Look up EC50 of "CCOCCOCCOCCNC(=O)N(Cc1ccccc1)[C@@H]1CCC[C@H](Nc2nc(-c3c[nH]c4ncc(F)cc34)ncc2F)C1" and report it. > 100 µM

Look up EC50 of "O=C(O)CCC(=O)N1CCC[C@H](Nc2nc(-c3c[nH]c4ncc(F)cc34)ncc2F)C1" and report it. < 5 µM

Look up EC50 of "O=C(NCc1ccc(F)cc1)OCc1ccnc(C(=O)N[C@@H]2CCC[C@H](Nc3nc(-c4c[nH]c5ncc(F)cc45)ncc3F)C2)c1" and report it. > 100 µM

Look up EC50 of "O=C(N[C@H]1CCC[C@@H](Nc2nc(-c3c[nH]c4ncc(F)cc34)ncc2F)C1)N1Cc2ccccc2C1" and report it. 5 to 25 µM

Look up EC50 of "CCOCCOCCCCCN(Cc1ccccc1)C(=O)N[C@@H]1CCC[C@H](Nc2nc(-c3c[nH]c4ncc(F)cc34)ncc2F)C1" and report it. 50 to 100 µM

Look up EC50 of "CCNC(=O)OCc1ccnc(C(=O)N[C@@H]2CCC[C@H](Nc3nc(-c4c[nH]c5ncc(F)cc45)ncc3F)C2)c1" and report it. < 5 µM

Look up EC50 of "O=C(N[C@H]1CCC[C@@H](Nc2nc(-c3c[nH]c4ncc(F)cc34)ncc2F)C1)c1cncc2ccccc12" and report it. 25 to 50 µM

Look up EC50 of "O=C(N[C@@H]1CCC[C@H](Nc2nc(-c3c[nH]c4ncc(F)cc34)ncc2F)C1)c1cc(CCCOCCOCc2ccccc2)ccn1" and report it. > 100 µM

Look up EC50 of "O=C(COCCOCCOCCO)N[C@@H]1CCC[C@H](Nc2nc(-c3c[nH]c4ncc(F)cc34)ncc2F)C1" and report it. 5 to 25 µM

Look up EC50 of CCOCCOCCCCCN(C)C(=O)NCC(C)CNc1nc(-c2c[nH]c3ncc(F)cc23)ncc1F (centres unmarked) and report it. > 100 µM

Look up EC50 of "CCOCc1cccc(COCCN(C)C(=O)N[C@@H]2CCC[C@H](Nc3nc(-c4c[nH]c5ncc(F)cc45)ncc3F)C2)c1" and report it. > 100 µM

Look up EC50 of "CCC(CC)OCCOCCCCCN(C)C(=O)N[C@H]1CCC[C@@H](Nc2nc(-c3c[nH]c4ncc(F)cc34)ncc2F)C1" and report it. > 100 µM

Look up EC50 of "O=C(N[C@H]1CCC[C@@H](Nc2nc(-c3c[nH]c4ncc(F)cc34)ncc2F)C1)c1cc2ccccc2cn1" and report it. > 100 µM

Look up EC50 of "CCOCCOCCOCCNC(=O)N(CCOCCOCC)[C@@H]1CCC[C@H](Nc2nc(-c3c[nH]c4ncc(F)cc34)ncc2F)C1" and report it. > 100 µM

Look up EC50 of "CCC(CC)OCCOCCCc1ccnc(C(=O)N[C@@H]2CCC[C@H](Nc3nc(-c4c[nH]c5ncc(F)cc45)ncc3F)C2)c1" and report it. > 100 µM

Look up EC50 of "O=C(NCc1ccncc1)OCc1ccnc(C(=O)N[C@H]2CCC[C@@H](Nc3nc(-c4c[nH]c5ncc(F)cc45)ncc3F)C2)c1" and report it. 5 to 25 µM

Look up EC50 of "Cc1ccnc(C(=O)N[C@H]2CCC[C@@H](Nc3nc(-c4c[nH]c5ncc(F)cc45)ncc3F)C2)c1" and report it. 5 to 25 µM

Look up EC50 of "O=C(NCCOCCOCCOCCO)N[C@@H]1CCC[C@H](Nc2nc(-c3c[nH]c4ncc(F)cc34)ncc2F)C1" and report it. 5 to 25 µM

====

Below, each entry is listed alongside its reported EC50.
molecular target: UniProtKB P03428; experiment: biochemical

Examples with answers:
Compound	Target desc	EC50
CCOCCOCCOCCNC(=O)N(CCc1ccccc1)[C@@H]1CCC[C@H](Nc2nc(-c3c[nH]c4ncc(F)cc34)ncc2F)C1 [Compound B2]	UniProtKB P03428	50 to 100 µM
CCCCc1ccnc(C(=O)N[C@H]2CCC[C@@H](Nc3nc(-c4c[nH]c5ncc(F)cc45)ncc3F)C2)c1 [Compound A42]	UniProtKB P03428	> 100 µM
CCOCCOCCCCCN(CC)C(=O)N[C@H]1CCC[C@@H](Nc2nc(-c3c[nH]c4ncc(F)cc34)ncc2F)C1 [Compound A227]	UniProtKB P03428	> 100 µM
CCOCCOCCc1cccc(N(C)C(=O)N[C@H]2CCC[C@@H](Nc3nc(-c4c[nH]c5ncc(F)cc45)ncc3F)C2)c1 [Compound A212]	UniProtKB P03428	> 100 µM
CCCOCCCCCCCN(C)C(=O)N[C@@H]1CCC[C@H](Nc2nc(-c3c[nH]c4ncc(F)cc34)ncc2F)C1 [Compound A199]	UniProtKB P03428	> 100 µM

Look up EC50 of COCc1cccc(-c2ccnc(C(=O)N[C@@H]3CCC[C@H](Nc4nc(-c5c[nH]c6ncc(F)cc56)ncc4F)C3)c2)c1 [Compound A61] and report it. 25 to 50 µM

Look up EC50 of O=C(O)CCOCCOCCOCCNC(=O)N[C@H]1CCC[C@@H](Nc2nc(-c3c[nH]c4ncc(F)cc34)ncc2F)C1 [Compound A172] and report it. 5 to 25 µM
